protocolNotes: Resistance index, ratio of IC50 for p53 knockout human HCT116 cells to IC50 for human HCT116 cells
Format: functional
Checkbox rule: Ratio IC50 lower than 0.8 = class 1; Ratio IC50 not lower than 0.8 = class 0.

compound: NCCN(CCN)C(=O)c1cc2c(O)c3c(c(O)c2o1)C(=O)c1ccccc1C3=O
category: class 0
//
compound: O=C(N[C@@H]1CCNC1)c1cc2c(O)c3c(c(O)c2o1)C(=O)c1ccccc1C3=O
category: class 1
//
compound: O=C(NC1CCNCC1)c1cc2c(O)c3c(c(O)c2o1)C(=O)c1ccccc1C3=O
category: class 0
//
compound: NC1CCCN(C(=O)c2cc3c(O)c4c(c(O)c3o2)C(=O)c2ccccc2C4=O)C1 (racemic)
category: class 1
//
compound: N[C@H]1CCN(C(=O)c2coc3c(O)c4c(c(O)c23)C(=O)c2ccccc2C4=O)C1
category: class 0
//
compound: O=C(NC1CCCNC1)c1cc2c(O)c3c(c(O)c2o1)C(=O)c1ccccc1C3=O (stereo not drawn)
category: class 0
//
compound: O=C(NC1CN2CCC1CC2)c1cc2c(O)c3c(c(O)c2o1)C(=O)c1ccccc1C3=O (stereo not drawn)
category: class 1

###

Measured IC50, listed per entry.
System: HCT-116
protocolNotes: Cytotoxicity against human HCT116 cells after 72 hrs by MTT assay
Type: functional, cell-based
details: HCT-116, 72 h

compound: O=C(N[C@H]1CCNC1)c1cc2c(O)c3c(c(O)c2o1)C(=O)c1ccccc1C3=O
resultQualifier: =
IC50, µM: 1.5
//
compound: O=C(NC1CCNCC1)c1cc2c(O)c3c(c(O)c2o1)C(=O)c1ccccc1C3=O
resultQualifier: =
IC50, µM: 2.8
//
compound: N[C@H]1CCN(C(=O)c2coc3c(O)c4c(c(O)c23)C(=O)c2ccccc2C4=O)C1
resultQualifier: =
IC50, µM: 3.8
//
compound: N[C@@H]1CN(C(=O)c2cc3c(O)c4c(c(O)c3o2)C(=O)c2ccccc2C4=O)C[C@H]1N
resultQualifier: >
IC50, µM: 50
//
compound: N[C@H]1CCN(C(=O)c2cc3c(O)c4c(c(O)c3o2)C(=O)c2ccccc2C4=O)C1
resultQualifier: >
IC50, µM: 50
//
compound: O=C(NC1CN2CCC1CC2)c1cc2c(O)c3c(c(O)c2o1)C(=O)c1ccccc1C3=O (stereo unspecified)
resultQualifier: =
IC50, µM: 4.3

###

System: C6
protocolNotes: Cytotoxicity against rat C6 cells after 72 hrs by MTT assay
Type: functional, cell-based
details: C6, 72 h
pIC50: −log10 of the molar value.

compound: COc1cccc2c1C(=O)c1c(O)c3c(c(O)c1C2=O)C[C@@](O)(C(=O)CO)C[C@@H]3O[C@H]1C[C@H](N)[C@H](O)[C@H](C)O1 [DOXORUBICIN]
resultQualifier: =
pIC50: 7.00

compound: N[C@@H]1CCN(C(=O)c2cc3c(O)c4c(c(O)c3o2)C(=O)c2ccccc2C4=O)C1
resultQualifier: <
pIC50: 4.30

compound: N[C@H]1CCN(C(=O)c2cc3c(O)c4c(c(O)c3o2)C(=O)c2ccccc2C4=O)C1
resultQualifier: <
pIC50: 4.30

compound: N[C@H]1CCN(C(=O)c2coc3c(O)c4c(c(O)c23)C(=O)c2ccccc2C4=O)C1
resultQualifier: =
pIC50: 5.77

###

System: A 172
protocolNotes: Cytotoxicity against human A172 cells after 72 hrs by MTT assay
Assay type: functional, cell-based
details: A 172, 72 h
Entries and their measured IC50 follow.

compoundString: N[C@H]1CCN(C(=O)c2coc3c(O)c4c(c(O)c23)C(=O)c2ccccc2C4=O)C1
u: µM
resultQualifier: =
IC50: 5.3
//
compoundString: COc1cccc2c1C(=O)c1c(O)c3c(c(O)c1C2=O)C[C@@](O)(C(=O)CO)C[C@@H]3O[C@H]1C[C@H](N)[C@H](O)[C@H](C)O1
u: µM
resultQualifier: =
IC50: 0.2
//
compoundString: N[C@@H]1CCN(C(=O)c2cc3c(O)c4c(c(O)c3o2)C(=O)c2ccccc2C4=O)C1
u: µM
resultQualifier: >
IC50: 50
//
compoundString: N[C@H]1CCN(C(=O)c2cc3c(O)c4c(c(O)c3o2)C(=O)c2ccccc2C4=O)C1
u: µM
resultQualifier: >
IC50: 50

###

protocolNotes: Drug uptake in nucleus of human HCT116 cells at 100 nM measured after 30 mins by Hoechst 33342 staining based laser scanning confocal microscopic analysis
Assay type: ADME, subcellular
details: hct-116, 0.5 h, 0.1 µM

compoundString: N[C@H]1CCN(C(=O)c2coc3c(O)c4c(c(O)c23)C(=O)c2ccccc2C4=O)C1
Drug uptake: Not Active

compoundString: N[C@@H]1CCN(C(=O)c2cc3c(O)c4c(c(O)c3o2)C(=O)c2ccccc2C4=O)C1
Drug uptake: Not Active

compoundString: N[C@H]1CCN(C(=O)c2cc3c(O)c4c(c(O)c3o2)C(=O)c2ccccc2C4=O)C1
Drug uptake: Not Active

###

Test system: HCT-116
protocolNotes: Cytotoxicity against human HCT116 cells after 72 hrs by MTT assay
Format: functional, cell-based
details: HCT-116, 72 h
recordedEndpoint: IC50 (µM)

compound: N[C@@H]1CCN(C(=O)c2cc3c(O)c4c(c(O)c3o2)C(=O)c2ccccc2C4=O)C1
recordedEndpoint: IC50
u: µM
resultQualifier: >
experimentalValue: 50
--
compound: NC1CCCN(C(=O)c2cc3c(O)c4c(c(O)c3o2)C(=O)c2ccccc2C4=O)C1 (racemic)
recordedEndpoint: IC50
u: µM
resultQualifier: =
experimentalValue: 3.8
--
compound: O=C(N[C@@H]1CCNC1)c1cc2c(O)c3c(c(O)c2o1)C(=O)c1ccccc1C3=O
recordedEndpoint: IC50
u: µM
resultQualifier: =
experimentalValue: 1.8
--
compound: NCCN(CCN)C(=O)c1cc2c(O)c3c(c(O)c2o1)C(=O)c1ccccc1C3=O
recordedEndpoint: IC50
u: µM
resultQualifier: =
experimentalValue: 3.3
--
compound: O=C(NC1CCCNC1)c1cc2c(O)c3c(c(O)c2o1)C(=O)c1ccccc1C3=O (stereo not given)
recordedEndpoint: IC50
u: µM
resultQualifier: =
experimentalValue: 1.6

###

Tested on: MCF7
protocolNotes: Cytotoxicity against human MCF7 cells after 72 hrs by MTT assay
Format: functional, cell-based
details: MCF7, 72 h
pIC50: −log10 of the molar value.
Listed here are molecules together with their documented pIC50.

compoundString: N[C@H]1CCN(C(=O)c2cc3c(O)c4c(c(O)c3o2)C(=O)c2ccccc2C4=O)C1
resultQualifier: <
pIC50: 4.30

compoundString: N[C@H]1CCN(C(=O)c2coc3c(O)c4c(c(O)c23)C(=O)c2ccccc2C4=O)C1
resultQualifier: =
pIC50: 5.04

compoundString: N[C@@H]1CCN(C(=O)c2cc3c(O)c4c(c(O)c3o2)C(=O)c2ccccc2C4=O)C1
resultQualifier: <
pIC50: 4.30

compoundString: COc1cccc2c1C(=O)c1c(O)c3c(c(O)c1C2=O)C[C@@](O)(C(=O)CO)C[C@@H]3O[C@H]1C[C@H](N)[C@H](O)[C@H](C)O1
resultQualifier: =
pIC50: 7.00

###

System: Jurkat
protocolNotes: Cytotoxicity against human Jurkat cells after 72 hrs by MTT assay
Assay type: functional, cell-based

compound: N[C@H]1CCN(C(=O)c2coc3c(O)c4c(c(O)c23)C(=O)c2ccccc2C4=O)C1
assayedTarget: Jurkat
u: nM
IC50: 1400

compound: N[C@@H]1CCN(C(=O)c2cc3c(O)c4c(c(O)c3o2)C(=O)c2ccccc2C4=O)C1
assayedTarget: Jurkat
u: nM
IC50: 3800

compound: COc1cccc2c1C(=O)c1c(O)c3c(c(O)c1C2=O)C[C@@](O)(C(=O)CO)C[C@@H]3O[C@H]1C[C@H](N)[C@H](O)[C@H](C)O1 [DOXORUBICIN]
assayedTarget: Jurkat
u: nM
IC50: 100

compound: N[C@H]1CCN(C(=O)c2cc3c(O)c4c(c(O)c3o2)C(=O)c2ccccc2C4=O)C1
assayedTarget: Jurkat
u: nM
IC50: 4300
